Assign Efficacy to each entry below.
System: Pyrenophora teres
Experiment: Example F: in vivo preventive test on Pyrenophora teres (barley), acetone/tween/DMSO preparation
Settings: Pyrenophora teres on barley, 100 ppm of active ingredient, grading 14 days after contamination
Write it as a number; the unit % goes unstated.

Record CN(C(=O)c1c(C(F)F)nn(C)c1F)C1CCC2CCCCC21 (stereo not shown) , field Efficacy: 98

Query CN(C(=O)c1cn(C)nc1C(F)F)C1CCC2CCCCC21 (stereo not shown) yields Efficacy of 75

// sample Cn1nc(C(F)F)c(C(=O)N(CC2CCCC3CCCC32)C2CC2)c1F (mixture of isomers) , its Efficacy was 98

Form field Efficacy, entry Cn1cc(C(=O)N(CC2CCCC3CCCC32)C2CC2)c(C(F)F)n1 (mixture of isomers) : 100

# credit: patent US9725414B2
